Each item that follows carries a reported growth inhibition by drug plus 177Lu-lilotomab satetraxetan.
System: RIVA
Assay: growth inhibition by drug plus 177Lu-lilotomab satetraxetan (1 - RLU/untreated control) (fraction); higher = stronger inhibition
Settings: 10 nM; time (day): 6; 177Lu-lilotomab satetraxetan 0.5 ug/ml
Lab note: write the figure by itself, no unit.

Please review the entries below; each comes with its answer.
O=c1cc(N2CCOCC2)oc2c(-c3ccccc3)cccc12; 0.58
Cc1nnc(C(C)C)n1C1C[C@H]2CC[C@@H](C1)N2CC[C@H](NC(=O)C1CCC(F)(F)CC1)c1ccccc1 (stereo in doubt); 0.645
Cn1cnc(N)c2ncnc1-2; 0.612

Next compound, growth inhibition by drug plus 177Lu-lilotomab satetraxetan to be filled in.
Prompt line: State its growth inhibition by drug plus 177Lu-lilotomab satetraxetan on RIVA: C=CC[C@@H]1/C=C(\C)C[C@H](C)C[C@H](OC)[C@H]2O[C@@](O)(C(=O)C(=O)N3CCCC[C@H]3C(=O)O[C@H](/C(C)=C/[C@@H]3CC[C@@H](O)[C@H](OC)C3)[C@H](C)[C@@H](O)CC1=O)[C@H](C)C[C@@H]2OC
Response line: 0.875

* * *

Test system: RIVA
Assay: growth inhibition by drug alone (1 - RLU/untreated control) (fraction); higher = stronger inhibition
Details: 10 nM; time (day): 3; 177Lu-lilotomab satetraxetan 0 ug/ml
Below, each entry is listed alongside its reported growth inhibition by drug alone.
Give only the figure.

Below, 7 molecules whose answers are already recorded.
Nc1cccc2c1CN(C1CCC(=O)NC1=O)C2=O (stereo not drawn) [Lenalidomide]; -0.0108
COc1ccc(-c2ccc3c(N4CCOCC4)nc(N4C[C@@H](C)O[C@@H](C)C4)nc3n2)cc1CO; 0.0903
O=C(NCCCNc1nc(Nc2cccc(NC(=O)N3CCCC3)c2)ncc1I)c1cccs1; 0.342
Cc1nnc(C(C)C)n1C1C[C@H]2CC[C@@H](C1)N2CC[C@H](NC(=O)C1CCC(F)(F)CC1)c1ccccc1 (stereo in doubt) [Maraviroc]; 0.071
COc1nc(-c2ccc3c(c2)OCO3)n(-c2ccc(NC(=O)CSc3ccccc3)cc2)n1 [SecinH3]; -0.242
Nc1ccc(-c2ccc3ncc4ccc(=O)n(-c5cccc(C(F)(F)F)c5)c4c3c2)cn1 [Torin 2]; 0.402
C[C@H](NC(=O)Cc1cc(F)cc(F)c1)C(=O)N[C@H](C(=O)OC(C)(C)C)c1ccccc1; -0.112

Now look at this one.
Prompt line: What measured growth inhibition by drug alone goes with COc1ccc(-c2ccc3c(N4CCOC[C@@H]4C)nc(N4CCOC[C@@H]4C)nc3n2)cc1CO ?
Response line: 0.0033

* * *

Test system: RIVA
Assay: growth inhibition by drug alone (1 - RLU/untreated control) (fraction); higher = stronger inhibition
Conditions: 10 nM; time (day): 3; 177Lu-lilotomab satetraxetan 0 ug/ml
Structures can show the parent of a compound that is named as a salt.
Listed below: growth inhibition by drug alone values for each entry.
Could you keep your reply to the number by itself?

These recorded examples may help you get a feel for the data.
CC(C)c1onc(-c2c(Cl)cccc2Cl)c1COc1ccc(/C=C/c2cccc(C(=O)O)c2)c(Cl)c1; 0.157
CN(C)c1nc(N(C)C)nc(N(C)C)n1; -0.25
CC[C@@H]1C(=O)N(C)c2cnc(Nc3ccc(C(=O)N[C@H]4CC[C@H](N5CCN(CC6CC6)CC5)CC4)cc3OC)nc2N1C(C)C; 0.23
Cc1[nH]c(/C=C2\C(=O)Nc3ccc(S(=O)(=O)Cc4c(Cl)cccc4Cl)cc32)c(C)c1C(=O)N1CCC[C@@H]1CN1CCCC1; -0.0942

Prompt line: Item under review: O=C1c2ccccc2C(=O)c2c(NCCc3ccc(O)cc3)ccc(NCCc3ccc(O)cc3)c21 . Reported growth inhibition by drug alone?
Response line: -0.237

Prompt line: For the compound COc1ccc2c3n(c(=NC(=O)c4cccnc4)nc2c1OC)CCN3 , what growth inhibition by drug alone is on record?
Response line: 0.159

Prompt line: Data request, read-out growth inhibition by drug alone, for CC/C(=C(\c1ccccc1)c1ccc(OCCN(C)C)cc1)c1ccccc1 [Tamoxifen Citrate (Nolvadex)]
Response line: 0.0612

Prompt line: What growth inhibition by drug alone value was documented for this compound, Nc1[nH]nc2nnc(-c3c(-c4ccccc4)nn4ccccc34)cc12 ?
Response line: 0.0237
